System: P388 leukemia ip, CD2F1 mice, survival T/C
Experiment: NCI In Vivo Anticancer Drug Screen. Data for tumor model P388 Leukemia (intraperitoneal) in CD2F1 (CDF1) mice
Settings: endpoint: median survival time; dose: 6.25 mg/kg/injection; schedule: Q01DX009 (ip); vehicle: saline
Toxic doses and inconclusive results are not listed. The calls were made as follows: active = survival T/C of 150% or more; inactive = T/C below 125% in these data.
// classify into yes (1) = active, no (0) = inactive

Call for entry C=C[Se](=C(C(=O)c1ccccc1)C(=O)c1ccccc1)c1ccccc1 (stereo unspecified) :
no (0)

Call for entry CC[NH-].CC[NH-].[Cl][Pt+2][Cl] :
yes (1)

Call for entry COC1=C(C2=C(OC)C(=O)c3cc4c(c(O)c3C2=O)C(=O)OC(C)C4)C(=O)c2c(cc3c(c2O)C(=O)OC(C)C3)C1=O (stereo unspecified) :
no (0)

Call for entry O=C1C(F)=C(N2CC2)C(=O)C(F)=C1N1CC1 :
yes (1)

Call for entry Cc1cc(N)cc(N)c1O :
no (0)

Call for entry Cc1ccc(C(=O)C(CN(C)C)CN(C)C)cc1 :
no (0)

Call for entry C[C@H]1/C(=C/C(=O)OCCN(C)C)CC[C@H]2[C@H]1C(=O)C[C@H]1C(C)(C)[C@@H](O)CC[C@]21C :
no (0)

Call for entry CCC[N+]1(CC)CCCCC1 :
no (0)

Call for entry CC1=C(C)SC(=S)NN1 :
no (0)

Call for entry CCCCCCCCP(=O)(N1CC1C)N1CC1C (stereo unspecified) :
no (0)

Call for entry C[CH2][Sn]([CH2]C)([O]C(C)=O)[O][Sn]([CH2]C)([CH2]C)[O]C(C)=O :
yes (1)

---

Test system: P388 leukemia ip, CD2F1 mice, survival T/C
Assay: NCI In Vivo Anticancer Drug Screen. Data for tumor model P388 Leukemia (intraperitoneal) in CD2F1 (CDF1) mice
Conditions: endpoint: median survival time; dose: 100.0 mg/kg/injection; schedule: Q01DX005 (ip); vehicle: saline with Tween-80; higher = longer survival
Inconclusive results and toxic doses are left out. Square brackets hold non-standard residues; d marks the D form. Peptide text beside a SMILES is read from it. * marks the point of attachment. Nle = CCCC[CH](N)C(=O)O; Cbz = O=C(OCc1ccccc1)*
quantity: T/C

Given the entry O=c1c2ccccc2nc(-c2ccc(Cl)cc2)n1O , report its measured T/C.
88 % of control

Given the entry O=C(O)CNC(=O)C(Cc1c[nH]c2ccccc12)NC(=O)OCc1ccccc1 (stereo not given) , report its measured T/C.
94 % of control

Given the entry C1CCN(CCC[Si]23OCCN(CCO2)CCO3)CC1 , report its measured T/C.
108 % of control

Given the entry Cc1ccc(S(=O)(=O)N/N=C2/CCCC(S(=O)(=O)c3ccc(C)cc3)C2)cc1 (stereo not given) , report its measured T/C.
93 % of control

Given the entry N#CN1C2CCC1CC(O)(c1ccccc1)C2 (stereo not given) , report its measured T/C.
102 % of control

Given the entry CC(C)CC(NC(=O)C(Cc1ccccc1)NC(=O)OCc1ccccc1)C(=O)NC(C)C(=O)O (stereo not drawn) (Cbz-Phe-Leu-Ala-OH; configuration not given here) , report its measured T/C.
97 % of control

Given the entry O=C(CC1=NC2NN(c3ccccc3)C(=O)C2=C1CC(=O)c1cccc2ccccc12)c1cccc2ccccc12 (stereo not given) , report its measured T/C.
107 % of control

Given the entry O=S=NSc1c(F)c(F)c(F)c(F)c1F , report its measured T/C.
111 % of control

Given the entry CCCCC(NC(=O)C(Cc1ccccc1)NC(=O)OCc1ccccc1)C(=O)O (stereo not drawn) (Cbz-Phe-[Nle]-OH; configuration not given here) , report its measured T/C.
105 % of control

Given the entry C(=C/c1nc2ccccc2nc1CCN1CCCCC1)/c1ccc2c(c1)OCO2 , report its measured T/C.
102 % of control
